Reference source for all entries: paper PMC7537397

- System: H1-HA–reactive T cell clones from CD4^+ naive T cell compartment
- Format: cell-based, human
MEASURED PARAMETER: N sister clones (epitope-specific naive clones per TCR Vβ clonotype)

GFLDIWTYNAELLVL 1
TVASSLVLVVSLGAISFWMC 1
GFLDIWTYNAELLVLLENER 1
EDKHNGKLCKLRGVAPLHLG 1
GKLCKLRGVAPLHLG 1
SRYSKKFKPEIAIRPKVRDQ 1

Here is another sequence to look at.
### Prompt Quick one: N sister clones (epitope-specific naive clones per TCR Vβ clonotype) of `AGAKSFYKNLIWLVKKGNSY` ?
### Response 1
